Answer each item with its documented Blood level 2 hr post-therapy.
Experiment: PK analysis 2 hours post-therapy, Example A (blood and tissue levels)
Format: in vivo, mouse
Conditions: treatment Compound A 60 mg/kg + Compound B 12 mg/kg; mean
Experimental: 2 hours after last dose for Compound A; 2 hours after last dose for Compound B; • Spleen weight is recorded at sacrifice. • Samples collected and snap frozen in liquid nitrogen and then kept at −80° C. until analysis: • spleen, BM, blood and liver for PK analysis • spleen for PD marker analysis (p-STATS (Compound A) and protein acetylation (Compound B)), • sternum for PD marker analysis (p-STATS (Compound A). […]
Form field: result (number plus unit)

response.value for `N#CC[C@H](C1CCCC1)n1cc(-c2ncnc3[nH]ccc23)cn1` (field: Blood level 2 hr post-therapy) = 2720 nM

response.value for `Cc1[nH]c2ccccc2c1CCNCc1ccc(/C=C/C(=O)NO)cc1` (field: Blood level 2 hr post-therapy) = 20 nM

* * *

assay: PK analysis 2 hours post-therapy, Example A (blood and tissue levels); format: in vivo, mouse; conditions: treatment Compound A 60 mg/kg + Compound B 4 mg/kg; mean
value.type: Blood level 2 hr post-therapy (nM)
Please give a number only; it is taken to be in nM.

response.value for N#CC[C@H](C1CCCC1)n1cc(-c2ncnc3[nH]ccc23)cn1 [Compound A] (field: Blood level 2 hr post-therapy) = 2780

response.value for Cc1[nH]c2ccccc2c1CCNCc1ccc(/C=C/C(=O)NO)cc1 [Compound B] (field: Blood level 2 hr post-therapy) = 20

* * *

test: Levels post therapy, Example B (UPLC/MS-MS, blood and tissues); assay type: in vivo, mouse; conditions: Balb/c, mouse, blood, single agent: Comp'd B 8 mg/kg or Comp'd A 60 mg/kg; mean, N = 9; read-out: Blood level 2 hr after final dose
value.type: concentration at 2 h
Form field: result (number plus unit)

response.value for `N#CC[C@H](C1CCCC1)n1cc(-c2ncnc3[nH]ccc23)cn1` (field: concentration at 2 h) = 8.18 µM

response.value for `Cc1[nH]c2ccccc2c1CCNCc1ccc(/C=C/C(=O)NO)cc1` (field: concentration at 2 h) = 0.035 µM
